target: PKMYT1 (Homo sapiens, UniProt Q99640)
Sequence (Q99640 whole entry): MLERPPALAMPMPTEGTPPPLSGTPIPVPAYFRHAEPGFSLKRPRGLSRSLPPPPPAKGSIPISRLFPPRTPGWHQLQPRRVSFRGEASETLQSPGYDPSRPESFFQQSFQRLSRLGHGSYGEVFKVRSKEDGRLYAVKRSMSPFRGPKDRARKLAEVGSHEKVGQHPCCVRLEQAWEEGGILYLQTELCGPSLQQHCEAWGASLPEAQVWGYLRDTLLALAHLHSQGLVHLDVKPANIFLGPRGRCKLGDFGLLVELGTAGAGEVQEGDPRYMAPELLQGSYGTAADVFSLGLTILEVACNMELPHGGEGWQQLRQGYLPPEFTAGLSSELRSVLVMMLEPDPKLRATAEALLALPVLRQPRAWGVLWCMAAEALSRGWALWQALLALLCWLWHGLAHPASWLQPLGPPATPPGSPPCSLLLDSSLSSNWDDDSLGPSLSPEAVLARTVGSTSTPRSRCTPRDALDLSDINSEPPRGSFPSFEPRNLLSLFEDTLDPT
measurement-type: IC50

The following compounds have reported results that may help.
Cc1c(O)cccc1-c1c(N)c(C(N)=O)cc2nc(C(F)(F)F)cnc12 (atropisomer, axis not shown; (P)) [Compound 100] = 50 to 500 nM
Cc1cnc2[nH]ncc2c1-c1c(N)c(C(N)=O)cc2nccnc12 [Compound 234] = ≥ 5000 nM
Cc1c(O)cccc1-c1c(N)c(C(N)=O)cc2ncccc12 (atropisomer, axis not shown; (P)) [Compound 69] = 1000 to 5000 nM
Cc1ccc(O)c(C)c1-c1c(N)c(C(N)=O)nc2cccnc12 (single isomer, unassigned) [Compound 10] = 500 to 1000 nM
NC(=O)c1nc2cccnc2c(-c2cncnc2C(F)(F)F)c1N [Compound 253] = 1000 to 5000 nM

According to the records, this compound NC(=O)c1cc2nccnc2c(-c2cccc(O)c2Cl)c1N (single isomer, unassigned) [Compound 106] displays IC50 of ≥ 5000 nM

Summary for this compound, Cc1ccc(O)c(C)c1-c1c(N)c(C(N)=O)cc2nc(-c3cnn(C)c3)cnc12 [Compound 251] : IC50 is < 50 nM

Measured IC50, Cc1c(O)cccc1-c1c(N)c(C(N)=O)nc2cccc(C#N)c12 (atropisomer, axis not shown) [Compound 243] : 50 to 500 nM
